The reported numbers originate from the pKa sets of Baltruschat and Czodrowski (2020).

Conditions: acidic group
value-type: pKa
Respond using a number only.

Before answering, review these 8 worked examples.
1. O=S(O)c1ccccc1 | 1.72
2. CC[NH+](CC)CC(=O)O | 1.98
3. CCC1(CC)SC(=O)NC1=O | 6.42
4. Nc1nc(N)c2[nH]cnc2n1 | 10.8
5. CC(C)(Cl)C(=O)O | 2.97
6. COc1ccccc1/C=C/C=N/O | 10.8
7. CC(C)C[C@H]([NH3+])C(=O)O | 2.54
8. CCC1C(=O)c2ccccc2C1=O | 6.5

// next entry
Record OCCS . Reported pKa: 9.47

----------
Listed here: items and their measured pKa.
Settings: basic group
Respond using a number only.

Before answering, review these 2 worked examples.
1) CCOC(=O)C[C@H](N)c1ccccc1 | 8.32
2) O=C([O-])[C@@H]1O[C@H](Oc2cccc3ncccc23)[C@@H](O)[C@H](O)[C@H]1O | 4.91

Record CCOc1c(C#N)cnc2ccccc12 . Reported pKa: 3.18

Record Cc1cc(-c2ccccc2)nnc1NCCN1CCOCC1 . Reported pKa: 7.05

Record Nc1c2c(ncn2Cc2ccccc2)nc[n+]1[O-] . Reported pKa: 2.4

Record Cc1cccc(C)c1C(=N)c1ccccc1 . Reported pKa: 7.71

Record CC(=O)c1ccccc1N . Reported pKa: 2.31

Record Cc1ccc(C2CCC[NH+]2C)cn1 (configuration not stated) . Reported pKa: 3.78

----------
Listed here: items and their measured pKa.
Conditions: acidic group

Before answering, review these 6 worked examples.
1) O=[PH]([O-])C(NCc1ccccn1)c1ccccc1O (configuration not stated) | 12
2) CN(C)/C=N/c1cccc(O)c1 | 10.2
3) Oc1nccc[nH+]1 | 2.24
4) CCOC(=O)COc1ccc(S(=O)(=O)c2ccc(O)c(C[NH3+])c2)c(Cl)c1Cl | 6.67
5) C[NH2+]CCCC(=O)O | 4.03
6) Cc1cccc(C(=O)O)c1Br | 2.9

// next entry
Record CC1NCCc2c1[nH]c1ccc(N)cc21 (configuration not stated) . Reported pKa: 16

----------
Listed here: items and their measured pKa.
Settings: basic group
Respond using a number only.

1) Cc1cc(-c2cc(C)[nH+][nH]2)[nH]n1 | 0.4
2) CCOCCNc1ccccc1 | 4.04
3) Cc1[nH]nc(O)c1C(C)C | 3
4) [S-]c1ccnc([S-])[nH+]1 | 6.46
5) Cc1cc(C)n(-c2ccccn2)n1 | 1.89

Record NCCc1ccc([O-])cc1 . Reported pKa: 10.4

Record CCN(CCO)c1ccc(N)cc1 . Reported pKa: 7.12

Record N/C(=N\O)C(N)c1ccccc1 (stereo unspecified) . Reported pKa: 7.15

Record Cc1n[nH]c(C)c1Cl . Reported pKa: 2.23

Record CC(C(O)c1ccccc1)N(C)C (stereo unspecified) . Reported pKa: 9.3

Record NS(=O)(=O)c1ccccc1C(=O)O . Reported pKa: 3.14

Record CC(C)CN(CCS)CC(C)C . Reported pKa: 8.23

----------
Conditions: acidic group
value-type: pKa
Respond using a number only.

1) CC(=O)CC=O | 6.12

Record O=C(O)CCCOC(=O)CCCBr . Reported pKa: 4.6

Record O=[N+]([O-])c1ccc(B(O)O)cc1 . Reported pKa: 7.15

Record O=C(O)C1CCCCn2nnnc21 (centres undefined) . Reported pKa: 3.4

Record Cc1cc(C(C)(C)C)cc(C)c1C(=O)O . Reported pKa: 3.44
